Tested on: c-Abl (mouse)
Assay summary: phosphorylation enrichment, bacterial display (enrichment ratio); higher = better substrate or ligand; peptides without Tyr show the background
Give t when the value for phosphorylation enrichment is at least 0.9. Give f when it is less.

## Task # check: phosphorylation enrichment of KVPELYEIHTE [BCR_Y554_K558T] is greater than or equal to 0.9
## Result f

## Task # check: phosphorylation enrichment of LVMFIDAIFGM [SCN1A_Y1684_Y1684D] is greater than or equal to 0.9
## Result t

## Task # check: phosphorylation enrichment of PGDGEYFTLQI [TP53_Y327_L323G] is greater than or equal to 0.9
## Result t

## Task # check: phosphorylation enrichment of RLLRGHDQYAY [HLA-B_Y137] is greater than or equal to 0.9
## Result f

## Task # check: phosphorylation enrichment of RSGNCYLDIRP [FBN1_Y1535] is greater than or equal to 0.9
## Result t

## Task # check: phosphorylation enrichment of KILGRYFETSS [PAX2_Y72_G76S_YF] is greater than or equal to 0.9
## Result f

###

Target or system: EPHB1 (UniProt P54762)
Sequence (P54762 whole entry, looked up): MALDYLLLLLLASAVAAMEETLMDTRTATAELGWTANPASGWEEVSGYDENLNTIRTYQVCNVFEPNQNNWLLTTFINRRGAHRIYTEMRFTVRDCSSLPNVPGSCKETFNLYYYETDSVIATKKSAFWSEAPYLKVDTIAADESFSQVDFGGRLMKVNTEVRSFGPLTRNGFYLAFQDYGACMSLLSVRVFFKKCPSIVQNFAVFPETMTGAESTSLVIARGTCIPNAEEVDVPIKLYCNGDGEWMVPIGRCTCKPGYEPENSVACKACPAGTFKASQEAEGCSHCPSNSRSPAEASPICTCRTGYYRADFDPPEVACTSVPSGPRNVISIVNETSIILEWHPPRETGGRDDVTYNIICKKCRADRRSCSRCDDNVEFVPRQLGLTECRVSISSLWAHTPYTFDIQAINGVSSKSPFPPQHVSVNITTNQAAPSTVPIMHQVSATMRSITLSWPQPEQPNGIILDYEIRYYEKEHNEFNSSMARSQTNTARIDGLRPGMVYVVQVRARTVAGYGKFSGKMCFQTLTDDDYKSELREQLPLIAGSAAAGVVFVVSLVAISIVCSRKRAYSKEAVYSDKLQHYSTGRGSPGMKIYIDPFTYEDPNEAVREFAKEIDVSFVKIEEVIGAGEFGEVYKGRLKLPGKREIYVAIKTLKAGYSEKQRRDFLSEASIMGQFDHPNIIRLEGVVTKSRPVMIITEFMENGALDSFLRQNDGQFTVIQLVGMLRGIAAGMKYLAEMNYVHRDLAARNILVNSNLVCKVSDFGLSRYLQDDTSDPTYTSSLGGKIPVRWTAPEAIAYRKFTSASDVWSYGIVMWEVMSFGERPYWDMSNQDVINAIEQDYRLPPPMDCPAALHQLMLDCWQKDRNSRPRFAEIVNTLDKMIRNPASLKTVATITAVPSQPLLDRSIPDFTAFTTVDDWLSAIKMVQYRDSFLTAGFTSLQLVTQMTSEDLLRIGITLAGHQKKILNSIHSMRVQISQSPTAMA
Assay summary: phosphorylation enrichment, bacterial display (enrichment ratio); higher = better substrate or ligand; peptides without Tyr show the background
Readout type: phosphorylation enrichment

# example entries with known answers
• EDSEYYKAFEE [CASQ2_Y179] = 0.526
• SKNYTYIWWLN [PSG4_Y271] = 0.582
• TTKGSYSLYVR [HCK_Y180_S183Y] = 0.667

## Task Return phosphorylation enrichment measured with EPHB1 (UniProt P54762) given this sequence: LLSISYVGCSL [ADGRD1_Y571_S567L]
## Result 0.888

## Task Return phosphorylation enrichment measured with EPHB1 (UniProt P54762) given this sequence: VTQEPYELFCE [CBL_Y368_Q367P_YF]
## Result 0.74

## Task Return phosphorylation enrichment measured with EPHB1 (UniProt P54762) given this sequence: EEQKKYYNAMK [SCN5A_Y1494]
## Result 0.451

###

Target or system: FGFR1 (UniProt P11362)
Sequence (P11362 whole entry, looked up): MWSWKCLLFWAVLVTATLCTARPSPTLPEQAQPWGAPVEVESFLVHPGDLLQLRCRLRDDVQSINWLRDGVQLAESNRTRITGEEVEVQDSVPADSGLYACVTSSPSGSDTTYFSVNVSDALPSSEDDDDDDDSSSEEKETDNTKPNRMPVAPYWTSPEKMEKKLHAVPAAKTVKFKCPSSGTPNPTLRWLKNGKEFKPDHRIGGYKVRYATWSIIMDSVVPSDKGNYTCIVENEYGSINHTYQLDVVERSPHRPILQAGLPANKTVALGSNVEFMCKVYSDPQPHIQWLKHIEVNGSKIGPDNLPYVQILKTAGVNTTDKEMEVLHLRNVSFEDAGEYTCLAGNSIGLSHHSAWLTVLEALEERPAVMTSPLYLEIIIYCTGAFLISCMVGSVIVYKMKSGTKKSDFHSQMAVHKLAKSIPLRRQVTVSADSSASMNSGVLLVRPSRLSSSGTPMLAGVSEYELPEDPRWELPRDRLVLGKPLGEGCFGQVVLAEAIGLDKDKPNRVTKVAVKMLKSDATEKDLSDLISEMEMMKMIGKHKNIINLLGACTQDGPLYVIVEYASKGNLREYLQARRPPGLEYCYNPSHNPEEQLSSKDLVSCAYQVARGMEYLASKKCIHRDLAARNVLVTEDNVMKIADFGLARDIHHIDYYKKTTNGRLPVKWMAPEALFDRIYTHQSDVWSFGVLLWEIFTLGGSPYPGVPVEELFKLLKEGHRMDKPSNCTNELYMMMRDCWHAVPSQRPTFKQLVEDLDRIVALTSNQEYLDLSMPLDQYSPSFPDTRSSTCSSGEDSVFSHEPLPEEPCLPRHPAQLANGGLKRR
Assay summary: phosphorylation enrichment, bacterial display (enrichment ratio); higher = better substrate or ligand; peptides without Tyr show the background
Please assign a class to every record based on measured phosphorylation enrichment, with ranges low bracket: < 0.4; middle bracket: ≥ 0.4 and < 0.6; high bracket: ≥ 0.6

Examples from the recorded data:
- SLRAHYDTPRS [DOK7_Y405]: low bracket
- HFVDEYDPTIE [KRAS_Y32]: high bracket
- GHLFAYDWIRI [BEST1_Y227_S231R_YF]: high bracket
- NKVFTYIFIME [SCN4A_Y1074_D1069N]: middle bracket
- SGSIHYSRVPR [GLB1_Y57]: high bracket
- GGSDCYGSLRP [MYLK_Y846_R845C]: low bracket
- GSSSSCGQHGS [HRNR_Y517_Y517C]: low bracket
- QLPRGYISIPV [BAG3_Y205]: middle bracket
- TQFWLYFAGNL [SLC25A5_Y112]: middle bracket
- CRIELYRIVES [IGFBP1_Y181_V183I]: middle bracket

## Task Tag the class for SVCPDYDLCSI [SQSTM1_Y148_V153I]
## Result high bracket

## Task Tag the class for SVGVPYEPPEV [TP53_Y220_V217G]
## Result middle bracket

## Task Tag the class for CDDGKYVFVVT [RPS6KA3_Y488_Y483C_YF]
## Result middle bracket

###

Target or system: FGFR1 (UniProt P11362)
Assay summary: phosphorylation enrichment, bacterial display (enrichment ratio); higher = better substrate or ligand; peptides without Tyr show the background
Please assign a class to every record based on measured phosphorylation enrichment, with ranges group A = under 0.5, group B = from 0.5 up to 0.8, group C = 0.8 and over

Examples from the recorded data:
- APAHKYHGGGG [HBD_Y146_L142P]: group A
- GIVEDYRPPLY [ACVRL1_Y421_F425L]: group A
- CATIHYNFMCN [TP53_Y234_T230A_YF]: group B
- PKEQKYSFLQN [GH1_Y68]: group B
- VKGGAYNPVTV [MCCC2_Y145_Y146N]: group A

Shifting focus to the sequence that follows.
## Task Tag the class for AFPVSYSSSSA [RET_Y687_G691S]
## Result group A

###

Each entry below carries its recorded phosphorylation enrichment.
Tested on: AncSZ
Assay summary: phosphorylation enrichment, bacterial display (enrichment ratio); higher = better substrate or ligand; peptides without Tyr show the background
# respond with the number and nothing more

• CSSGGYEPRGR [FUS_Y239_R234C] = 0.801
• SKNYTYIWWLN [PSG4_Y271] = 1.09
• RDEHGYISRCF [HSPB1_Y133_Q128R] = 1.49
• FRVAGYKTQGG [TIA1_Y383_E384K_YF] = 0.533
• DHYNQYEQQKM [CHD7_Y75] = 0.844

## Task Can you share its phosphorylation enrichment? I mean this sequence: VILENYGADID [DNAH5_Y596_L591V]
## Result 1.06

## Task Can you share its phosphorylation enrichment? I mean this sequence: PKGIGYGQGAG [CSRP3_Y73]
## Result 0.458

## Task Can you share its phosphorylation enrichment? I mean this sequence: AGQEDYDRLRP [CDC42_Y64]
## Result 1.13

## Task Can you share its phosphorylation enrichment? I mean this sequence: THQNSYQPGRK [CEFIP_Y210]
## Result 0.561

## Task Can you share its phosphorylation enrichment? I mean this sequence: IETGKYEILTE
## Result 1.18

###

Target or system: FGFR3 (UniProt P22607)
Sequence (P22607 whole entry, looked up): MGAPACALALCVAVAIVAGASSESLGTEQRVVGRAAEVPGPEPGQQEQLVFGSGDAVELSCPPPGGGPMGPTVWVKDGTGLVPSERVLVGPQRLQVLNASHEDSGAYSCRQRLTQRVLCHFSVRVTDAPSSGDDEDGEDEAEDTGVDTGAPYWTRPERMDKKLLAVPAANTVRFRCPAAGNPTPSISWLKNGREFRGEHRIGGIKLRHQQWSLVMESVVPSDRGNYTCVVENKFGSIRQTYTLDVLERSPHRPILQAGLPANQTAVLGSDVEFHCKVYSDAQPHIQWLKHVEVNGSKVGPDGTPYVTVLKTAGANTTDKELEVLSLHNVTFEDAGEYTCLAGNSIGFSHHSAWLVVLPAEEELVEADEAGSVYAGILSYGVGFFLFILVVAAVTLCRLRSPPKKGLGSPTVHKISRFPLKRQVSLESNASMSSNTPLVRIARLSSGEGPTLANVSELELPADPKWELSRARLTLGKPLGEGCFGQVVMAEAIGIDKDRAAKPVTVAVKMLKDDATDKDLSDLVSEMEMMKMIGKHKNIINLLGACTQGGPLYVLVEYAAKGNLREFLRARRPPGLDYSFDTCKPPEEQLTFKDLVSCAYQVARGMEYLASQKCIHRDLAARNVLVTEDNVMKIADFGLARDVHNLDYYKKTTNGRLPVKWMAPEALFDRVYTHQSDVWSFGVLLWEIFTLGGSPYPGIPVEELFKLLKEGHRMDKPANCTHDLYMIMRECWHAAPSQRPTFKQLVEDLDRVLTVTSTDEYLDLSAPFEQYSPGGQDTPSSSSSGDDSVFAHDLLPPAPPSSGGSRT
Assay summary: phosphorylation enrichment, bacterial display (enrichment ratio); higher = better substrate or ligand; peptides without Tyr show the background
Readout type: phosphorylation enrichment
# respond with the number and nothing more

* HLNLTYRILSF [MMP23B_Y95_F91L] | 1.27
* SHSMKYFDTAV [HLA-C_Y31_R30K] | 0.432
* TCFDKYTGNTF [FN1_Y101_YF] | 0.92

## Task Can you share its phosphorylation enrichment? I mean this sequence: GVPLGYPIKAP [ELN_Y206]
## Result 0.399

## Task Can you share its phosphorylation enrichment? I mean this sequence: CTTIHYFFMCN [TP53_Y234_N235Y_YF]
## Result 0.635

## Task Can you share its phosphorylation enrichment? I mean this sequence: QFKGKYLAKHN [CASK_Y712_D710G_YF]
## Result 0.327

###

Target or system: c-Src SH2;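 also: peptide library displayed on the E. coli surface as eCPX fusions, selected cells deep-sequenced, score is each peptide's frequency after selection divided by its frequency in the input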
Assay summary: SH2 binding enrichment of the phosphorylated peptide, bacterial display (enrichment ratio); higher = better substrate or ligand; peptides without Tyr show the background
Readout type: SH2 binding enrichment
# respond with the number and nothing more

# example entries with known answers
• YNDSAYNQQLI [ZPLD1_Y198_T197A] = 0.388
• KNNDGNIDFAE [MCFD2_Y135_Y135N_YF] = 0.6
• KGSEGYLAAIF [NF1_Y2503_T2507I_YF] = 0.428
• SGIYQYIIAKF [FOXL2_Y83] = 1.07
• SETSRYLSDLF [KCNJ3_Y67] = 0.543

## Task Return SH2 binding enrichment measured with c-Src SH2 given this sequence: EKKKYYDAKIE [CASP5_Y104_T106A]
## Result 0.522

## Task Return SH2 binding enrichment measured with c-Src SH2 given this sequence: AQAGEYGAEAL [HBA1_Y25_H21Q]
## Result 0.608

## Task Return SH2 binding enrichment measured with c-Src SH2 given this sequence: TPGPNYRPGYN [USH2A_Y463]
## Result 0.442

## Task Return SH2 binding enrichment measured with c-Src SH2 given this sequence: LAAAKYKLNVD [SMARCA2_Y1190]
## Result 0.386

###

System: c-Abl (mouse)
Assay summary: phosphorylation enrichment, bacterial display (enrichment ratio); higher = better substrate or ligand; peptides without Tyr show the background
Readout type: phosphorylation enrichment

• TNFPLYLRSLE [MTM1_Y71_R69P_YF] = 0.493
• IVKAYYVRARA [AIPL1_Y268] = 0.512
• AKAEIYEMRPL [COX10_Y97] = 0.801
• ARLEFYENEKK [IRS1_Y47_YF] = 0.492

## Task Return phosphorylation enrichment measured with c-Abl (mouse) given this sequence: AMCVRYDGVEV [ADAMTSL2_Y594]
## Result 0.817

###

Tested on: c-Src
Assay summary: phosphorylation enrichment, bacterial display (enrichment ratio); higher = better substrate or ligand; peptides without Tyr show the background
Please assign a class to every record based on measured phosphorylation enrichment, with ranges lower bin: < 0.5; middle bin: ≥ 0.5 and < 0.8; upper bin: ≥ 0.8

Examples from the recorded data:
* PKEQKYSFLQN [GH1_Y68] | middle bin
* ARGTRYRYVSQ [UCN3_Y95] | middle bin
* QLQVFYATRDQ [MIPEP_Y579_L582R] | upper bin
* VIKDKYPKAHF [APTX_Y209_R213H_YF] | lower bin

## Task Tag the class for CLNAIYQNNLT [GSR_Y158_R153C]
## Result upper bin

## Task Tag the class for MGGSVYFSFPD [HIKESHI_Y55_YF]
## Result upper bin

## Task Tag the class for SSSAIYDNPDL [DCP1B_Y191_N195D]
## Result upper bin

## Task Tag the class for ETEMLYGSAPR [PRC1_Y464]
## Result upper bin

## Task Tag the class for GHEFIYVDRMQ [PDGFRB_Y581_P584R_YF]
## Result upper bin

## Task Tag the class for ARSHIYTFSSC [MEFV_Y741_A744S]
## Result upper bin

## Task Tag the class for VRVQLYDPDFM [CYP4A22_Y100_Y104F]
## Result middle bin

## Task Tag the class for TGQERYRAITS [RAB11B_Y73_A68T]
## Result lower bin

## Task Tag the class for LRRREYQRQDF [PRKRIP1_Y90_YF]
## Result upper bin

## Task Tag the class for VAHAVYQAVLS [SMG1_Y549]
## Result upper bin

## Task Tag the class for KYACSYTPVKA [FLNB_Y708_T703K]
## Result lower bin

## Task Tag the class for SIIKDYFHRGA [GATM_Y203]
## Result lower bin

## Task Tag the class for IGHHAYGDQFR [IDH1_Y135_R132H_YF]
## Result lower bin

## Task Tag the class for DIDKIYVRTGI [PIK3CA_Y355]
## Result middle bin
